Target: T1, Lag3 expressed on cells (recombinant CHO cells expressing Lag3; Lag3+ NFAT Jurkat effector cells) (human, UniProt P18627 29-525)
T1 sequence: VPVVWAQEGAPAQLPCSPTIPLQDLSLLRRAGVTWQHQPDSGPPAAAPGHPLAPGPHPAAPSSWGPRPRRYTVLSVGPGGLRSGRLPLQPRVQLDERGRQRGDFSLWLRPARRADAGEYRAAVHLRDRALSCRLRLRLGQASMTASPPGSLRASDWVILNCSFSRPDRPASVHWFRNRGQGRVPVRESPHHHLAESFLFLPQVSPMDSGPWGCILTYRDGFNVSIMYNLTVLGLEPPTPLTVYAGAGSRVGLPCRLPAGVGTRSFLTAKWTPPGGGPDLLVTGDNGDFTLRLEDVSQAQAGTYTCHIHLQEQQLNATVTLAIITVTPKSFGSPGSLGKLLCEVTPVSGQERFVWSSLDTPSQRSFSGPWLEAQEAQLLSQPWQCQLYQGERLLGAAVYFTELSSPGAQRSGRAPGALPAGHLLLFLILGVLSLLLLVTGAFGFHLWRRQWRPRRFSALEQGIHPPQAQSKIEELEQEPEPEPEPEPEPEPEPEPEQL
Assay: cell-based or functional assay
measured_attribute: EC50 [nM] in Jurkat LAG3 + SED + Raji, 2nd assay (nM)

[
  {
    "binder": "aLAG3(0414) (antibody, V domains shown, also called aLAG3 (414)) VH: EVQLLESGGGLVQPGGSLRLSCAASGFIFDDYTMNWVRQAPGKGLEWVAVISWDGGGTYYTDSVKGRFTISRDDFKNTLYLQMNSLRAEDTAVYYCAKGLTDTTLYGSDYWGQGTLVTVSS VL: DIQMTQSPSSLSASVGDRVTITCRASQSISSYLNWYQQKPGKAPKLLIYAASTLQSGVPSRFSGSGSGTDFTLTISSLQPEDFATYYCQQTYSSPLTFGGGTKVEIK",
    "observed_result": 1
  },
  {
    "binder": "MDX25F7 (25F7) (antibody, V domains shown, also called Medarex 25F7) VH: QVQLQQWGAGLLKPSETLSLTCAVYGGSFSDYYWNWIRQPPGKGLEWIGEINHNGNTNSNPSLKSRVTLSLDTSKNQFSLKLRSVTAADTAVYYCAFGYSDYEYNWFDPWGQGTLVTVSS VL: EIVLTQSPATLSLSPGERATLSCRASQSISSYLAWYQQKPGQAPRLLIYDASNRATGIPARFSGSGSGTDFTLTISSLEPEDFAVYYCQQRSNWPLTFGQGTNLEIK",
    "observed_result": 8.6
  }
]
